Test system: P. vulgaris GN 7919
Test details: Antimicrobial activities (MIC, agar dilution)
Assay type: cell-based
Assay setup: Proteus vulgaris, GN7919, Sensitivity Disk agar-N+5% Horse blood, 10^6 CFU/ml, read-out: minimum inhibiting concentrations (MIC)
Parameter: MIC (µg/mL)
Could you give me the number in µg/mL? Just the number is fine.

## Task State its MIC on P. vulgaris GN 7919: C[C@@H](O)[C@H]1C(=O)N2C(C(=O)[O-])=C(c3cn4cnc(SCCF)c4s3)[C@H](C)[C@H]12.[Na+] [Example 14]
## Result 0.78

## Task Request body: readout MIC, system P. vulgaris GN 7919, query C[C@@H](O)[C@H]1C(=O)N2C(C(=O)[O-])=C(c3cn4cnc(SCCN)c4s3)[C@H](C)[C@H]12.[Na+] [Example 5] . Return the value.
## Result 0.2

## Task What reported MIC corresponds to C[C@@H](O)[C@H]1C(=O)N2C(C(=O)O)=C(SCCN=CN)C[C@H]12 [Compound A, Imipenem, reference compound] on P. vulgaris GN 7919?
## Result 0.1

## Task Quick check: MIC on P. vulgaris GN 7919, item C[C@@H](O)[C@H]1C(=O)N2C(C(=O)[O-])=C(c3cn4cnc(SCCNC(=N)N)c4s3)[C@H](C)[C@H]12.[Na+] [Example 20] ?
## Result 0.39

## Task Given the entry C[C@@H](O)[C@H]1C(=O)N2C(C(=O)[O-])=C(c3cn4cncc4s3)[C@H](C)[C@H]12.[Na+] [Compound B, reference compound] , what MIC was observed with P. vulgaris GN 7919?
## Result 0.1

---

Tested on: S. epidermidis ATCC 14990
Test details: Antimicrobial activities (MIC, agar dilution)
Assay type: cell-based
Assay setup: Staphylococcus epidermidis, ATCC14990, Sensitivity Disk agar-N+5% Horse blood, 10^6 CFU/ml, read-out: minimum inhibiting concentrations (MIC)
Description: The minimum inhibiting concentrations (MIC, μg/ml) of representative compounds, among the novel carbapenem derivatives of the present invention, to various pathogenic bacteria were measured in accordance with the method described in CHEMOTHERAPY, vol. 16, No. 1, 99, 1968. The culture medium for the measurement is Sensitivity Disk agar-N+5% Horse blood, and the amount of inoculants used is 10^6 CFU/ml.
In this section we review reported MIC values for a set of compounds.

// below: answered compounds
INSERT INTO assay_data (compound, parameter, reading) VALUES
  ('C[C@@H](O)[C@H]1C(=O)N2C(C(=O)[O-])=C(c3cn4cnc(SCCN)c4s3)[C@H](C)[C@H]12.[Na+] [Example 5]', 'MIC', '< 0.025 µg/mL'),
  ('C[C@@H](O)[C@H]1C(=O)N2C(C(=O)[O-])=C(c3cn4cnc(SCCF)c4s3)[C@H](C)[C@H]12.[Na+] [Example 14]', 'MIC', '< 0.025 µg/mL'),
  ('C[C@@H](O)[C@H]1C(=O)N2C(C(=O)O)=C(SCCN=CN)C[C@H]12 [Compound A, Imipenem, reference compound]', 'MIC', '< 0.025 µg/mL'),
  ('C[C@@H](O)[C@H]1C(=O)N2C(C(=O)[O-])=C(c3cn4cncc4s3)[C@H](C)[C@H]12.[Na+] [Compound B, reference compound]', 'MIC', '< 0.025 µg/mL');

Okay, now this compound:
## Task Tell me the measured MIC of C[C@@H](O)[C@H]1C(=O)N2C(C(=O)[O-])=C(c3cn4cnc(SCCNC(=N)N)c4s3)[C@H](C)[C@H]12.[Na+] [Example 20] , please.
## Result < 0.025 µg/mL

---

Tested on: S. aureus M 126
Test details: Antimicrobial activities (MIC, agar dilution)
Type: cell-based
Assay setup: Staphylococcus aureus, M126; S. aureus M 126, Methicillin-hyperresistant strain; Sensitivity Disk agar-N+5% Horse blood; 10^6 CFU/ml; read-out: minimum inhibiting concentrations (MIC)
# MIC annotations
Answer in µg/mL, number only, no unit symbol.

## Task # query: MIC of entry C[C@@H](O)[C@H]1C(=O)N2C(C(=O)[O-])=C(c3cn4cnc(SCCN)c4s3)[C@H](C)[C@H]12.[Na+] [Example 5]
## Result 1.56

## Task Can you look up the measured MIC of C[C@@H](O)[C@H]1C(=O)N2C(C(=O)[O-])=C(c3cn4cnc(SCCNC(=N)N)c4s3)[C@H](C)[C@H]12.[Na+] [Example 20] for me?
## Result 0.78

## Task Given C[C@@H](O)[C@H]1C(=O)N2C(C(=O)[O-])=C(c3cn4cnc(SCCF)c4s3)[C@H](C)[C@H]12.[Na+] [Example 14] , state its recorded MIC.
## Result 0.78

## Task Value lookup for MIC; key = C[C@@H](O)[C@H]1C(=O)N2C(C(=O)[O-])=C(c3cn4cncc4s3)[C@H](C)[C@H]12.[Na+] [Compound B, reference compound]
## Result 6.25

## Task For C[C@@H](O)[C@H]1C(=O)N2C(C(=O)O)=C(SCCN=CN)C[C@H]12 [Compound A, Imipenem, reference compound] , what is its reported MIC?
## Result 25

---

System: H. influenzae PRC 2
Test details: Antimicrobial activities (MIC, agar dilution)
Assay type: cell-based
Assay setup: Haemophilus influenzae, PRC2, Sensitivity Disk agar-N+5% Horse blood, 10^6 CFU/ml, read-out: minimum inhibiting concentrations (MIC)
Parameter: MIC (µg/mL)
Give the quantity in µg/mL, number only.

INSERT INTO results (compound, parameter, reading) VALUES
  ('C[C@@H](O)[C@H]1C(=O)N2C(C(=O)O)=C(SCCN=CN)C[C@H]12 [Compound A, Imipenem, reference compound]', 'MIC', 0.78),
  ('C[C@@H](O)[C@H]1C(=O)N2C(C(=O)[O-])=C(c3cn4cnc(SCCN)c4s3)[C@H](C)[C@H]12.[Na+] [Example 5]', 'MIC', 0.05);

Moving on to the next compound.
## Task Find the measured MIC: item C[C@@H](O)[C@H]1C(=O)N2C(C(=O)[O-])=C(c3cn4cnc(SCCNC(=N)N)c4s3)[C@H](C)[C@H]12.[Na+] [Example 20] , target or system H. influenzae PRC 2.
## Result 0.05

---

System: S. pneumoniae PRC 9
Test details: Antimicrobial activities (MIC, agar dilution)
Assay type: cell-based
Assay setup: Streptococcus pneumoniae, PRC9; S. pneumoniae PRC 9, Penicillin-hyperresistant strain; Sensitivity Disk agar-N+5% Horse blood; 10^6 CFU/ml; read-out: minimum inhibiting concentrations (MIC)
In this section we review reported MIC values for a set of molecules.
Only the number, expressed in µg/mL, is required.

# example entries with known answers
INSERT INTO results (molecule, target_desc, reading) VALUES
  ('C[C@@H](O)[C@H]1C(=O)N2C(C(=O)[O-])=C(c3cn4cnc(SCCNC(=N)N)c4s3)[C@H](C)[C@H]12.[Na+]', 'S. pneumoniae PRC 9', 0.05),
  ('C[C@@H](O)[C@H]1C(=O)N2C(C(=O)[O-])=C(c3cn4cncc4s3)[C@H](C)[C@H]12.[Na+] [Compound B, reference compound]', 'S. pneumoniae PRC 9', 0.2),
  ('C[C@@H](O)[C@H]1C(=O)N2C(C(=O)O)=C(SCCN=CN)C[C@H]12 [Compound A, Imipenem, reference compound]', 'S. pneumoniae PRC 9', 0.2),
  ('C[C@@H](O)[C@H]1C(=O)N2C(C(=O)[O-])=C(c3cn4cnc(SCCN)c4s3)[C@H](C)[C@H]12.[Na+]', 'S. pneumoniae PRC 9', 0.05);

## Task Query: MIC; subject: `C[C@@H](O)[C@H]1C(=O)N2C(C(=O)[O-])=C(c3cn4cnc(SCCF)c4s3)[C@H](C)[C@H]12.[Na+]`
## Result 0.05

---

System: K. pneumoniae PC 1602
Test details: Antimicrobial activities (MIC, agar dilution)
Assay type: cell-based
Assay setup: Klebsiella pneumoniae, PC1602, Sensitivity Disk agar-N+5% Horse blood, 10^6 CFU/ml, read-out: minimum inhibiting concentrations (MIC)
Description: The minimum inhibiting concentrations (MIC, μg/ml) of representative compounds, among the novel carbapenem derivatives of the present invention, to various pathogenic bacteria were measured in accordance with the method described in CHEMOTHERAPY, vol. 16, No. 1, 99, 1968. The culture medium for the measurement is Sensitivity Disk agar-N+5% Horse blood, and the amount of inoculants used is 10^6 CFU/ml.
Parameter: MIC (µg/mL)
Respond numerically; units are µg/mL and should not be typed.

INSERT INTO results (molecule, reading) VALUES
  ('C[C@@H](O)[C@H]1C(=O)N2C(C(=O)O)=C(SCCN=CN)C[C@H]12 [Compound A, Imipenem, reference compound]', 0.2),
  ('C[C@@H](O)[C@H]1C(=O)N2C(C(=O)[O-])=C(c3cn4cnc(SCCN)c4s3)[C@H](C)[C@H]12.[Na+]', 0.1),
  ('C[C@@H](O)[C@H]1C(=O)N2C(C(=O)[O-])=C(c3cn4cnc(SCCNC(=N)N)c4s3)[C@H](C)[C@H]12.[Na+]', 0.39),
  ('C[C@@H](O)[C@H]1C(=O)N2C(C(=O)[O-])=C(c3cn4cncc4s3)[C@H](C)[C@H]12.[Na+] [Compound B, reference compound]', 0.1);

Below: the item to evaluate.
## Task Please state recorded MIC (tested on K. pneumoniae PC 1602) of `C[C@@H](O)[C@H]1C(=O)N2C(C(=O)[O-])=C(c3cn4cnc(SCCF)c4s3)[C@H](C)[C@H]12.[Na+]`
## Result 1.56
